STUDY_SYSTEM: Tyrosinase (Agaricus bisporus) (UniProt O42713)
Sequence (whole entry): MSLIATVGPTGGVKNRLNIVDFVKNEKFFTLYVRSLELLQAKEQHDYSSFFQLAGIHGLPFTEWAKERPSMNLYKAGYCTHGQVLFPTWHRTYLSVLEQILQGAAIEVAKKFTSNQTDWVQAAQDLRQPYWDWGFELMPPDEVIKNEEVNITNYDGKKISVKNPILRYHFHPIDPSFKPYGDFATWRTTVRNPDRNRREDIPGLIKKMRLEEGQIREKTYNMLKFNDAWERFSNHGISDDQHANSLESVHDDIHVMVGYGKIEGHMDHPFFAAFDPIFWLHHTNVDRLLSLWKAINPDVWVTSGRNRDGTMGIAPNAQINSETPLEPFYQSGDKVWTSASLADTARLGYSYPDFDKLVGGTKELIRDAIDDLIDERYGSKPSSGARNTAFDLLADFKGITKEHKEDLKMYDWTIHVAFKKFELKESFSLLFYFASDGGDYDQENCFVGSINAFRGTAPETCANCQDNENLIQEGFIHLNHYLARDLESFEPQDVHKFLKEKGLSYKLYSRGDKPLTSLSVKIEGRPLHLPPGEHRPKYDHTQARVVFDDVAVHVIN
PROTOCOL_NOTES: Inhibition of mushroom tyrosinase using L-DOPA as substrate after at 30 uM after 5 mins relative to control
Recorded inhibition values for a group of compounds are listed next.
Provide the reading as a plain figure in %.

A selection of reference data follows.
>>> experimental_result("COc1ccc2[nH]c3c4c(c(C)cc3c2c1)OC(C)(C)C=C4")
1
>>> experimental_result("COc1ccc2c(c1)[nH]c1c3c(c(C)cc12)O[C@](C)(CCC=C(C)C)C=C3")
0.9
>>> experimental_result("COc1ccc2c([nH]c3cc(O)c(C)cc32)c1C/C=C(\\C)CCC=C(C)C")
-6.4
>>> experimental_result("Cc1cc2c3ccc(O)cc3n3c2c2c1O[C@@]1(C)CC[C@H]([C@H]2C1)C3(C)C (relative stereo)")
15.3

As a next step, examine the compound that follows.
The compound listed as COc1cccc2c1[nH]c1c3c(c(C)cc12)OC(C)(CCC=C(C)C)C=C3 (stereo not given) has a reported inhibition of 2.7

These data points were gathered from ChEMBL document CHEMBL2321663.
